Ref: ChEMBL document CHEMBL1152285

SYSTEM UNDER TEST: Cytochrome P450 2C9 (Homo sapiens, UniProt P11712)
Sequence (P11712 whole entry): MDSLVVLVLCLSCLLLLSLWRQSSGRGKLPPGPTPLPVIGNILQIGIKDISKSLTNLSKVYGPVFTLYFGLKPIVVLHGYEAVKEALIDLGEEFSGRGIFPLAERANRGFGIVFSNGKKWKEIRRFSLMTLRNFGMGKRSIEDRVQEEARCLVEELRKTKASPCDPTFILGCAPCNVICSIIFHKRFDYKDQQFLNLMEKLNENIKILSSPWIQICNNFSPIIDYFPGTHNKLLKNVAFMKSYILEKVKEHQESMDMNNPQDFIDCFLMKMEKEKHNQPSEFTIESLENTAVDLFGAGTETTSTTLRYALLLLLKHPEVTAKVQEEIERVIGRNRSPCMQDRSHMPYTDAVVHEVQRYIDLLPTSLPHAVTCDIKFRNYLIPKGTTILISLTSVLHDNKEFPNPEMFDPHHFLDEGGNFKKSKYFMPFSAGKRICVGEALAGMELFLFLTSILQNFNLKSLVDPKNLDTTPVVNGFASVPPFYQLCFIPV
METHOD SUMMARY: Inhibition of CYP2C9 in human hepatocytes
Format: ADME, cell-based, Hepatocyte
READOUT: IC50 (µM)
Give bare numbers, in µM.

> print(dat)
                                   compound  unit.of.measure  recorded.result
1  CC(NC(=O)c1ccc(C(=O)C(F)(F)F)s1)c1cccc2ccccc12 (stereo not given)               µM               11
2  COc1cccc(N2CCN(C(=O)c3ccc(C(=O)C(F)(F)F)s3)CC2)c1               µM                8
3  COc1ccc(Cl)cc1N1CCN(C(=O)c2ccc(C(=O)C(F)(F)F)s2)CC1               µM              1.8
4  CC(NC(=O)c1ccc(C(=O)C(F)(F)F)s1)c1ccncc1 (stereo not given)               µM               10

Now for the compound whose IC50 we want.
API: value(readout=IC50, system=Cytochrome P450 2C9 (Homo sapiens, UniProt P11712)) for record O=C(c1ccc(C(=O)C(F)(F)F)s1)N1CCC(c2nnc(-c3ccccc3)o2)CC1
8

----------
Give IC50 for every item shown.
SYSTEM UNDER TEST: Histone deacetylase 3 (Homo sapiens, UniProt O15379)
Sequence (O15379 whole entry): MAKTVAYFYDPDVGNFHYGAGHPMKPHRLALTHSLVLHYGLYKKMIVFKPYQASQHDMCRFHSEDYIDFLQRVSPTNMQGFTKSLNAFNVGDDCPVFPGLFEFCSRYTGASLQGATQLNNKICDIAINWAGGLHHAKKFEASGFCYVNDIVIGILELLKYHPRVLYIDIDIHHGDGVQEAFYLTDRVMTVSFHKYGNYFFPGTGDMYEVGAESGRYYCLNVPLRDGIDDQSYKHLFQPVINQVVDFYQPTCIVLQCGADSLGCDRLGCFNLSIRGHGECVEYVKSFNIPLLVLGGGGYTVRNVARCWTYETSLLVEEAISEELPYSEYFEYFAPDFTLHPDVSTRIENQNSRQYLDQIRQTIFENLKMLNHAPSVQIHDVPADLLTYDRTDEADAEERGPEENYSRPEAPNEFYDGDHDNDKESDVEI
METHOD SUMMARY: Inhibition of HDAC3 purified from HEK293 cells by Western blot
Give bare numbers, in nM.

Answered examples (2):
> print(dat)
                                   compound  unit.of.measure  recorded.result
1  CC(NC(=O)c1ccc(C(=O)C(F)(F)F)s1)c1cccc2ccccc12 (configuration not stated)               nM              840
2  CN(Cc1ccccc1)C(=O)c1ccc(C(=O)C(F)(F)F)s1               nM              560

Consider the following items and state reported IC50 for each.
1. CC(NC(=O)c1ccc(C(=O)C(F)(F)F)s1)c1ccncc1 (configuration not stated)
2. O=C(c1ccc(C(=O)C(F)(F)F)s1)N1CCc2ccccc21
3. O=C(c1ccc(C(=O)C(F)(F)F)s1)N1CCC(c2nnc(-c3ccccc3)o2)CC1

1: 1500; 2: 1400; 3: 2800

----------
SYSTEM UNDER TEST: Protein deacetylase HDAC6 (Homo sapiens)
METHOD SUMMARY: Inhibition of HDAC6 purified from HEK293 cells by Western blot
READOUT: pIC50
Give bare numbers, as −log10 of the molar value.

Answered examples (3):
> print(dat)
                                   compound                         system.under.test  readout  recorded.result
1  CC(NC(=O)c1ccc(C(=O)C(F)(F)F)s1)c1cccc2ccccc12 (stereo not given)  Protein deacetylase HDAC6 (Homo sapiens)    pIC50             6.44
2    O=C(NCC1CCCCC1)c1ccc(C(=O)C(F)(F)F)cn1  Protein deacetylase HDAC6 (Homo sapiens)    pIC50             5.48
3  COc1cccc(N2CCN(C(=O)c3ccc(C(=O)C(F)(F)F)s3)CC2)c1  Protein deacetylase HDAC6 (Homo sapiens)    pIC50             6.77

Consider the following items and state reported pIC50 for each.
1. O=C(c1ccc(C(=O)C(F)(F)F)s1)N1CCC(c2nnc(-c3ccccc3)o2)CC1
2. CC(NC(=O)c1ccc(C(=O)C(F)(F)F)s1)c1ccncc1 (stereo not given)

1. 6.80
2. 6.59

----------
SYSTEM UNDER TEST: Protein deacetylase HDAC6 (Homo sapiens, UniProt Q9UBN7)
Sequence (Q9UBN7 whole entry): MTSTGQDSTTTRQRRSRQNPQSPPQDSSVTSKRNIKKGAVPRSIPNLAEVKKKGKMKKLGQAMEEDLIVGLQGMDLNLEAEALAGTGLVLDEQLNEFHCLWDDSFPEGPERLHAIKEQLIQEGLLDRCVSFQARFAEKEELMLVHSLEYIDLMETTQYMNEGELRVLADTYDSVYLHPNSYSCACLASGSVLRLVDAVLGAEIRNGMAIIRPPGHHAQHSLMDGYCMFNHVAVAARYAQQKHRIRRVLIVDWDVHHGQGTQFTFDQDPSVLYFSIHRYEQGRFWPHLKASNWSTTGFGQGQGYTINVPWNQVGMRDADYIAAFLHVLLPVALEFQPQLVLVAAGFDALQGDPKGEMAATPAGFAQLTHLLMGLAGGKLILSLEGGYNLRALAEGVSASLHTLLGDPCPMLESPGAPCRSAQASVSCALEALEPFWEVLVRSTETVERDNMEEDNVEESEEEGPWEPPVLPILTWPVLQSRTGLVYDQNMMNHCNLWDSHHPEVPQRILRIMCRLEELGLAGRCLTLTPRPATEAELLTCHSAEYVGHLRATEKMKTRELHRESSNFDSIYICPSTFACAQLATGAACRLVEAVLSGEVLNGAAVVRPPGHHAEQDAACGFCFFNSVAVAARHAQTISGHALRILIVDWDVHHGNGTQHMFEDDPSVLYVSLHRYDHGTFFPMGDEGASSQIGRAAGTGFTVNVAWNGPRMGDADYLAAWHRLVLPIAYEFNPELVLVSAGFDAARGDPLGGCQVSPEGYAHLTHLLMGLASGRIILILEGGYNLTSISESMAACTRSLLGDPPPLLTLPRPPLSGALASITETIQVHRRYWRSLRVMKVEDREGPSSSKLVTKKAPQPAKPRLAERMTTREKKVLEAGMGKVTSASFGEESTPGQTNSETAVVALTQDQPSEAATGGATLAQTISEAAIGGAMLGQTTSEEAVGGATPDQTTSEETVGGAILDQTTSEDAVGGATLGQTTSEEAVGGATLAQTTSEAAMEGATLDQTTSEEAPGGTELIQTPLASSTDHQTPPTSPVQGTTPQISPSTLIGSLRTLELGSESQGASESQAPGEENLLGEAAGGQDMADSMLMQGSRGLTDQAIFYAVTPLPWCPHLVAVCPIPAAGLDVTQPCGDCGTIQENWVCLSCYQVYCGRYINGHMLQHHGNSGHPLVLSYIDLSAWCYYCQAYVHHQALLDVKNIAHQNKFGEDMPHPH
METHOD SUMMARY: Inhibition of HDAC6 purified from HEK293 cells by Western blot
Give IC50 for every item shown.
Answers are plain numbers, in µM.

> print(dat)
                                 smiles.str                         system.under.test  readout  unit.of.measure  recorded.result
1  O=C(c1ccc(C(=O)C(F)(F)F)s1)N1CCc2ccccc21  Protein deacetylase HDAC6 (Homo sapiens, UniProt Q9UBN7)     IC50               µM             0.13
2  COc1ccc(Cl)cc1N1CCN(C(=O)c2ccc(C(=O)C(F)(F)F)s2)CC1  Protein deacetylase HDAC6 (Homo sapiens, UniProt Q9UBN7)     IC50               µM            0.175
3  O=C(c1ccc(C(=O)C(F)(F)F)[nH]1)N1CCc2ccccc21  Protein deacetylase HDAC6 (Homo sapiens, UniProt Q9UBN7)     IC50               µM             0.58
4  O=C(c1ncc(C(=O)C(F)(F)F)s1)N1CCc2ccccc21  Protein deacetylase HDAC6 (Homo sapiens, UniProt Q9UBN7)     IC50               µM             0.41
5   O=C(NCc1ccccc1Cl)c1ccc(C(=O)C(F)(F)F)s1  Protein deacetylase HDAC6 (Homo sapiens, UniProt Q9UBN7)     IC50               µM             0.19

Now for the compound whose IC50 we want.
Report IC50 for C[C@H](NC(=O)c1ccc(C(=O)C(F)(F)F)s1)c1ccccc1 please.
0.15

----------
Give half-life for every item shown.
METHOD SUMMARY: Stability in human HCT116 cells S9 fraction by LCMS/MS in presence of NADPH
Type: ADME, subcellular
Answers are plain numbers, in min.

> print(dat)
                                 smiles.str    readout  unit.of.measure  recorded.result
1  O=C(c1ccc(C(=O)C(F)(F)F)[nH]1)N1CCc2ccccc21  half-life              min               15

Consider the following items and state reported half-life for each.
1. CN(Cc1ccc2nccnc2c1)C(=O)c1ccc(C(=O)C(F)(F)F)s1
2. O=C(c1ncc(C(=O)C(F)(F)F)s1)N1CCc2ccccc21

20
20

Report half-life for O=C(NCc1ccccc1Cl)c1ccc(C(=O)C(F)(F)F)s1 please.
15

----------
SYSTEM UNDER TEST: Cytochrome P450 2C9 (Homo sapiens)
METHOD SUMMARY: Inhibition of CYP2C9 in human liver microsomes
Type: ADME, Microsome
READOUT: pIC50
One number for each entry, as −log10 of the molar value.

Answered examples (4):
> print(dat)
                                   compound  recorded.result
1  COc1ccc(Cl)cc1N1CCN(C(=O)c2ccc(C(=O)C(F)(F)F)s2)CC1             5.74
2  COc1cccc(N2CCN(C(=O)c3ccc(C(=O)C(F)(F)F)s3)CC2)c1             5.30
3  CC(NC(=O)c1ccc(C(=O)C(F)(F)F)s1)c1ccncc1 (stereo not given)             4.89
4  CC(NC(=O)c1ccc(C(=O)C(F)(F)F)s1)c1cccc2ccccc12 (stereo not given)             5.85

Now for the compound whose pIC50 we want.
Report pIC50 for O=C(c1ccc(C(=O)C(F)(F)F)s1)N1CCC(c2nnc(-c3ccccc3)o2)CC1 please.
5.10
